// data source = paper PMC12303054

What Ki was measured for each of the following?
- STUDY_SYSTEM: wildtype SARS-CoV-2 Nsp15 (Severe acute respiratory syndrome coronavirus 2)
- PROTOCOL: biochemical
- CONDITION_SET: noncompetitive inhibition model, IC50-to-Ki converter; read-out: Predicted Ki

COMPOUND: O=C1NC(=O)C(=CC=Cc2cccc3ccccc23)S1 [KCO231]
STUDY_SYSTEM: wildtype SARS-CoV-2 Nsp15 (Severe acute respiratory syndrome coronavirus 2)
Ki: 4340 nM

Field: Ki. Fill in for each record below.
1. O=C1NC(=S)SC1=CC=Cc1ccnc2ccccc12 [KCO237]
2. O=C1NC(=S)SC1=CC=Cc1cccc2ccccc12 [KCO249]
3. O=C1NC(=O)C(=CC=Cc2c3ccccc3cc3ccccc23)S1 [KCO035]

229 nM
1280 nM
7140 nM
